- ASSAY_EXPLANATION: Pharmacokinetic study, oral dosing, plasma concentration by LC-MS/MS
- Assay type: in vivo
- CONDITION_INFO: mouse; female swiss mice, fasted overnight, oral 3 mg/kg in PEG 400, plasma; read-out: Elimination t1/2 (converted)
VALUE_KIND: half-life (h)
Numeric only. Scale: h

Give the measured half-life of CNC(=O)c1ccc(Oc2nc(-c3cccc4[nH]ncc34)nc(N3CCOCC3)n2)cc1 . 4.86

###

VALUE_KIND: IC50

// lookup IC50 | system=PI3K alpha (Homo sapiens) | key= CN(C)C(=O)[C@H]1CC[C@H](Oc2nc(-c3cccc4[nH]ncc34)nc(N3CCOCC3)n2)CC1 < 5 µM

Give IC50 (PI3K alpha (Homo sapiens)) of the following compound: CN(C)C(=O)c1ccc(Oc2nc(-c3ccnc(N)c3)nc(N3CCOCC3)n2)cc1 < 5 µM

Please provide the recorded IC50 for CN(C)C(=O)CNc1nc(-c2cccc(C#N)c2)nc(N2CCOCC2)n1 , tested on PI3K alpha (Homo sapiens). > 5 µM

Give recorded IC50 with PI3K alpha (Homo sapiens) for the following compound: O=C(O)CNc1nc(-c2cccc(NO)c2)nc(N2CCOCC2)n1 > 5 µM

Look up IC50 with PI3K alpha (Homo sapiens) for this compound: CS(=O)(=O)N1CCN(C(=O)CCNc2nc(-c3cccc4[nH]ncc34)nc(N3CCOCC3)n2)CC1 < 5 µM

Please state recorded IC50 (tested on PI3K alpha (Homo sapiens)) of CN(C)C(=O)N1CCN(Cc2nc(-c3cccc4[nH]ncc34)nc(N3CCOCC3)n2)CC1 < 5 µM

Observed IC50 on PI3K alpha (Homo sapiens) for CN(C)C(=O)c1ccc(Oc2nc(-c3cnc4[nH]ccc4c3)nc(N3CCOCC3)n2)cc1 , please. < 5 µM

Test system PI3K alpha (Homo sapiens); read-out IC50; what value for CC(Nc1nc(-c2cccc(O)c2)nc(N2CCOCC2)n1)C(=O)N1CCN(S(C)(=O)=O)CC1 (centres unmarked) ? < 5 µM

###

These molecules were tested on PI3K alpha (Homo sapiens, UniProt P42336); IC50 is the recorded read-out.
Sequence (P42336 whole entry): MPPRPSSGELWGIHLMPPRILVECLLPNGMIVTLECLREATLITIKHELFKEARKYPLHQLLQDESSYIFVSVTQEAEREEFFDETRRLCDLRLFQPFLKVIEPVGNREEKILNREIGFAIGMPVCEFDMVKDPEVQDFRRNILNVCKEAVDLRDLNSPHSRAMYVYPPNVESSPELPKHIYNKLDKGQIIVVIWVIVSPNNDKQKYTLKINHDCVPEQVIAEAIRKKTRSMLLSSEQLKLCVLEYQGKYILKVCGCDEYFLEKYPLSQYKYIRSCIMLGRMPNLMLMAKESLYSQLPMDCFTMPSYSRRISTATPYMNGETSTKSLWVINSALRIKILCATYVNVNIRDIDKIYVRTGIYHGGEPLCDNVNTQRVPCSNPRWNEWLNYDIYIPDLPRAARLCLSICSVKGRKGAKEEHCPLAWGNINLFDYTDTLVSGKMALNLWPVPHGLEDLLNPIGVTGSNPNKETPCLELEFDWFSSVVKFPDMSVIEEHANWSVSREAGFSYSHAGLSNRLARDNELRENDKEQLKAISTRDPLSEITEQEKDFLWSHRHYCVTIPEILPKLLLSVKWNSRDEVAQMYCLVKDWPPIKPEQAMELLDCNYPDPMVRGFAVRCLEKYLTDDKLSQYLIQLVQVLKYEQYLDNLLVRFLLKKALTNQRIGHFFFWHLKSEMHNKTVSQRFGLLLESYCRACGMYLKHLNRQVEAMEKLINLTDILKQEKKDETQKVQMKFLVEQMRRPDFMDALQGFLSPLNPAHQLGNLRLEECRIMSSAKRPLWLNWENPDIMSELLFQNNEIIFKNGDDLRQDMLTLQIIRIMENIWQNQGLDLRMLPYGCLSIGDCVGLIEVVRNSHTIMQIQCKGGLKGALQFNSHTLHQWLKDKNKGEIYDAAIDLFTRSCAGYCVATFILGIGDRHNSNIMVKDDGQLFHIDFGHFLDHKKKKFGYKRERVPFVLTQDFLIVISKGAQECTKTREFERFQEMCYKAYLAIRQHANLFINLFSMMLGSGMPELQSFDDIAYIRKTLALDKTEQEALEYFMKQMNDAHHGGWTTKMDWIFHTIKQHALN
Sequence (P27986 whole entry partner): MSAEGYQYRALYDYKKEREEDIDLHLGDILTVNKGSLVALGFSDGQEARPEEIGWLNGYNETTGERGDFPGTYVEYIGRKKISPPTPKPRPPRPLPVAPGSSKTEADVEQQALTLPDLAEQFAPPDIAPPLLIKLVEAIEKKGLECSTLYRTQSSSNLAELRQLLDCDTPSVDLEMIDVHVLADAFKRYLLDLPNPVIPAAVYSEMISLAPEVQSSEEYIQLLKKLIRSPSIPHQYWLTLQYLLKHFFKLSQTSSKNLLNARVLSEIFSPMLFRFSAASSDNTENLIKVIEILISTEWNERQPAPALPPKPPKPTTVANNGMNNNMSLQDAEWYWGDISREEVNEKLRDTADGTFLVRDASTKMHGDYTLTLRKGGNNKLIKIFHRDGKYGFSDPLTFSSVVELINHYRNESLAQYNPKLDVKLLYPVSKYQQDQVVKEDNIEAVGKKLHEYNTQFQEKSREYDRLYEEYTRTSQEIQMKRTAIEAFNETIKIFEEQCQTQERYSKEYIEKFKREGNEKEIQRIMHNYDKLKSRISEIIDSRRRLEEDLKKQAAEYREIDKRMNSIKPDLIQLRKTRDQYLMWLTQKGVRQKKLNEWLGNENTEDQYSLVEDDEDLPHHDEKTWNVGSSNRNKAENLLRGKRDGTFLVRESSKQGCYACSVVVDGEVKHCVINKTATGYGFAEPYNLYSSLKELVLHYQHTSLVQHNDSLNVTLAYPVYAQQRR

Could you tell me which IC50 is on file for CCOc1ccc(NC(=O)C2CCN(c3nc(-c4cccc5[nH]ncc45)nc(N4CCOCC4)n3)C2)cc1 (centres unmarked) [Compound 1174] ? < 5 µM

Need IC50, item CS(=O)(=O)N1CCN(c2nc(-c3cnc(N)nc3)nc(N3CCOCC3)n2)CC1 [Compound 1062] < 5 µM

I am curious: what IC50 value has been reported for c1cc(-c2nc(N3CCOCC3)nc(N3CCOCC3)n2)c2cn[nH]c2c1 [Compound 1233] ? < 5 µM

Give its IC50 value. Item: Nc1ccc(-c2nc(N3CCNCC3)nc(N3CCOCC3)n2)cn1 [Compound 1134] < 5 µM

For the molecule shown here, CS(=O)(=O)N[C@@H]1CC[C@@H](Oc2nc(-c3cccc4[nH]ncc34)nc(N3CCOCC3)n2)C1 [Compound 1083] , give the reported IC50. < 5 µM

Tell me the measured IC50 of c1cc(-c2nc(N3CCNCC3)nc(N3CCOCC3)n2)c2cn[nH]c2c1 [Compound 1229] , please. < 5 µM

Could you tell me which IC50 is on file for O=C1CCc2ccc(Oc3nc(-c4cccc5[nH]ncc45)nc(N4CCOCC4)n3)cc2N1 [Compound 1054] ? < 5 µM

I am curious: what IC50 value has been reported for CS(=O)(=O)N1CCN(C(=O)CNc2nc(-c3cccc(O)c3)nc(N3CCOCC3)n2)CC1 [Compound 1089] ? < 5 µM

GET /values?readout=IC50&item= CN(C)C(=O)Cc1cccc(Oc2nc(-c3ccc(N)nc3)nc(N3CCOCC3)n2)c1 [Compound 1013] < 5 µM

Entry under review: Nc1nc(-c2cccc3[nH]ncc23)nc(N2CCOCC2)n1 [Compound 1231] . Reported IC50? > 5 µM

Requested read-out: IC50. Entry: Oc1cccc(-c2nc(N3CCOCC3)nc(N3CCOCC3)n2)c1 [Compound 1160] < 5 µM

Suppose we examine the molecule CN(C)C(=O)c1ccc(Oc2nc(-c3ccc(F)nc3)nc(N3CCOCC3)n2)cc1 [Compound 1029] ; what IC50 value has been reported? < 5 µM

# IC50 lookup, item CN(C)C(=O)c1ccc(Oc2nc(-c3ccc(NN)nc3)nc(N3CCOCC3)n2)cc1 [Compound 1019] < 5 µM

Query: IC50; subject: CN(C)C(=O)c1ccc(Oc2nc(-c3cccc4[nH]ncc34)nc(N3CCCOCC3)n2)cc1 [Compound 1073] < 5 µM

Data request, read-out IC50, for CN(C)Cc1ccc(Oc2nc(-c3cccc4[nH]ncc34)nc(N3CCOCC3)n2)cc1 [Compound 1119] < 5 µM

Consider the molecule CN(C)C(=O)C(Cc1ccccc1)Nc1nc(-c2cccc3[nH]ncc23)nc(N2CCOCC2)n1 (centres unmarked) [Compound 1209] and give its measured IC50. < 5 µM

Can you share its IC50? I mean this molecule: CN(C)C(=O)c1ccc(Oc2nc(-c3cccc4[nH]c(=O)[nH]c34)nc(N3CCOCC3)n2)cc1 [Compound 1034] > 5 µM

Fill in the blank: the reported IC50 of CN(C)C(=O)c1cccc(Nc2nc(-c3cccc4[nH]ncc34)nc(N3CC(C(N)=O)C3)n2)c1 [Compound 1056] is ____. > 5 µM

Look at this molecule and give its reported IC50. CN(C)C(=O)[C@@H]1CCC[C@@H](Oc2nc(-c3cccc4[nH]ncc34)nc(N3CCOCC3)n2)C1 [Compound 1133] < 5 µM

Which IC50 value is on record for CC(Nc1nc(-c2cccc3[nH]ncc23)nc(N2CCOCC2)n1)C(N)=O (centres unmarked) [Compound 1234] ? < 5 µM

If you can, please state the reported IC50 value of c1ccc(CN2CCC(Oc3nc(-c4cccc5[nH]ncc45)nc(N4CCOCC4)n3)CC2)cc1 [Compound 1115] . < 5 µM

Entry CC(=O)Nc1cccc(-c2nc(N3CCOCC3)nc(N(CC(=O)O)C(C)=O)n2)c1 [Compound 1121] : reported IC50 = ? > 5 µM

Data request, read-out IC50, for CN(C)C(=O)c1ccc(Oc2nc(-c3cccc4[nH]ncc34)nc(N3CCOCC3)n2)cc1 [Compound 1114] < 5 µM

Sample CN1CCN(c2nc(-c3cccc4[nH]ncc34)nc(N3CCOCC3)n2)CC1 [Compound 1228] — what was its IC50? < 5 µM

Please look up its IC50: CS(=O)(=O)N1CCN(C(=O)c2cccc(Nc3nc(-c4cccc5[nH]ncc45)nc(N4CCOCC4)n3)c2)CC1 [Compound 1130] < 5 µM

What value of IC50 has been recorded for this entry: Oc1nc(-c2cccc3[nH]ncc23)nc(N2CCOCC2)n1 [Compound 1212] < 5 µM

These measurements were taken from patent US9481670B2.
